Where these numbers come from: patent US11377442B2

test system: HEK293 pGL4; assay: Firefly_pGL signal, cmpd/DMSO (pGL4 control cells); assay type: cell-based; conditions: Homo sapiens, HEK293, Table 14; 10 uM; read-out: Firefly pGL4, cmpd/DMSO (mean)
measuredMetric: fold induction at 10 µM
// print number alone

# query: fold induction at 10 µM | item Cc1ccc(NC(=O)c2noc3c2CC(C(C)(C)C)CC3)cc1C (stereo not shown) | system: HEK293 pGL4
1.1

# query: fold induction at 10 µM | item `COC(=O)c1ccc2oc(=O)c(S(=O)(=O)c3ccccc3)cc2c1` | system: HEK293 pGL4
1.7

# query: fold induction at 10 µM | item `Cc1ccn2cc(-c3ccc(F)cc3)cc2c1` | system: HEK293 pGL4
1.6

# query: fold induction at 10 µM | item `Cc1ccc(-c2nc3ccccc3c(=O)[nH]2)cc1` | system: HEK293 pGL4
1.3

# query: fold induction at 10 µM | item `Cc1cc(C)n2nc(CNS(=O)(=O)c3ccc(Cl)cc3)nc2n1` | system: HEK293 pGL4
1

# query: fold induction at 10 µM | item `CCOC(=O)c1cnc2c(C)cccc2c1NCCCN(C)C` | system: HEK293 pGL4
2.4

# query: fold induction at 10 µM | item `Cc1cc(C)c2ncc(C(N)=O)c(NCCCN(C)C)c2c1` | system: HEK293 pGL4
0.9

# query: fold induction at 10 µM | item `Cc1cc(C)nc(Sc2nnc(-c3ccc(C)c(S(=O)(=O)N4CCOCC4)c3)c3ccccc23)n1` | system: HEK293 pGL4
8.9

# query: fold induction at 10 µM | item `COc1ccc(-c2cn3cccc(C)c3n2)cc1` | system: HEK293 pGL4
1.3

# query: fold induction at 10 µM | item `CCOC(=O)c1cnc2c(C)cc(C)cc2c1NCCCN(C)C` | system: HEK293 pGL4
1.9

# query: fold induction at 10 µM | item `COC(=O)c1cnc2c(C)cc(C)cc2c1NCCCN(C)C` | system: HEK293 pGL4
0.9

# query: fold induction at 10 µM | item `CCOC(=O)c1cnn2c(-c3ccc(Cl)cc3)ccnc12` | system: HEK293 pGL4
0.9

# query: fold induction at 10 µM | item `Cc1cc(C)n2nc(CNS(=O)(=O)c3c(F)c(F)c(F)c(F)c3F)nc2n1` | system: HEK293 pGL4
0.7

# query: fold induction at 10 µM | item `CCc1cc(C(=O)Nc2ccn(Cc3ccc(C)cc3)n2)no1` | system: HEK293 pGL4
1.3

# query: fold induction at 10 µM | item `O=C(Nc1cccc(O)c1)c1cc(-c2ccc(Cl)c(Cl)c2)on1` | system: HEK293 pGL4
1.2

# query: fold induction at 10 µM | item `Cc1ccc(NC(=O)c2noc3c2CCCC3)cc1C` | system: HEK293 pGL4
1.4

# query: fold induction at 10 µM | item Cc1ccc(NC(=O)c2noc3c2CC(C)CC3)cc1C (stereo not shown) | system: HEK293 pGL4
1.4

# query: fold induction at 10 µM | item `CCOC(=O)c1cnc2c(C)cc(C)cc2c1N1CCC(CO)CC1` | system: HEK293 pGL4
0.5

# query: fold induction at 10 µM | item `CCc1cccc(Nc2cnn(-c3nc4ccccc4s3)c(=O)c2Cl)c1` | system: HEK293 pGL4
0.8

# query: fold induction at 10 µM | item `Cc1cc(C)n2nc(CNS(=O)(=O)c3ccc(F)cc3)nc2n1` | system: HEK293 pGL4
0.8

# query: fold induction at 10 µM | item `CCn1cc2c(n1)c(=O)n(Cc1ccccc1)c(=O)n2CC(=O)Nc1ccc(Br)cc1` | system: HEK293 pGL4
0.4

# query: fold induction at 10 µM | item `Cc1cc(NC(=O)CCS(=O)(=O)c2nc(-c3ccc4c(c3)OCO4)cc(C(F)(F)F)n2)no1` | system: HEK293 pGL4
0.7

# query: fold induction at 10 µM | item `Cc1ccc(NC(=O)c2noc3c2CCC3)cc1C` | system: HEK293 pGL4
1.6

# query: fold induction at 10 µM | item `CCOC(=O)c1cnc2c(C)cc(C)cc2c1NCc1ccccc1` | system: HEK293 pGL4
0.6

# query: fold induction at 10 µM | item `O=C(COc1ccccc1C(=O)N1CCOCC1)NCCc1ccccc1` | system: HEK293 pGL4
1
